Cited source for all entries: patent US7737155B2

Molecular target: recombinant human nicotinic acid receptor (NAR) (Homo sapiens)
Sequence (Q8TDS4 whole entry): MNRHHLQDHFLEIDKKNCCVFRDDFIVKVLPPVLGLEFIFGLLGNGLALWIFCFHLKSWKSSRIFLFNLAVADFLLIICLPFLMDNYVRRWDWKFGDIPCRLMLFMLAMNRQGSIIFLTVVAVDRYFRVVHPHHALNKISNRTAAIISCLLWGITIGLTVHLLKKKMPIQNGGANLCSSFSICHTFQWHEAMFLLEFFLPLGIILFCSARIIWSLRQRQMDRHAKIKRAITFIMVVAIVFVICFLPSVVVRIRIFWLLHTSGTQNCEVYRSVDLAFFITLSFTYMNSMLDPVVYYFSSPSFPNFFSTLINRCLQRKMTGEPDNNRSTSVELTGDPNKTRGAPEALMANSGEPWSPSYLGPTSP
Assay: Nicotinic Acid Receptor Assay: inhibition of forskolin-stimulated cAMP accumulation in CHO cells (MesoScale Discovery cAMP kit)
Format: cell-based
Conditions: inhibition of forskolin-stimulated cAMP accumulation, CHO cells expressing recombinant human NAR; read-out: NA EC50 camp
pEC50: −log10 of the molar value.
Label 1 when pEC50 >= 7; otherwise 0.

| Compound | Category |
| --- | --- |
| O=c1cc(CCCC2CC2)c2c(=O)n(C3CCC3)c(=O)[nH]c2o1 | 1 |
| CCCCc1cc(=O)oc2nc(CF)[nH]c(=O)c12 | 0 |
| CSCCCc1cc(=O)oc2nc(CF)[nH]c(=O)c12 | 0 |
| CCC#CCOc1nc2oc(=O)cc(CCCC(C)C)c2c(=O)[nH]1 | 0 |
| CCCCc1cc(=O)oc2[nH]c(=O)nc(OCC(F)F)c12 | 0 |
| CCCCc1cc(=O)oc2[nH]c(=O)nc(OCCOC)c12 | 0 |
| CCCCc1cc(=O)oc2[nH]c(=O)nc(OCF)c12 | 1 |
| COn1c(=O)[nH]c(=O)c2c(CCC3CCC3)cc(=O)oc21 | 1 |
| CC#CCOc1nc2oc(=O)cc(CCCC3CC3)c2c(=O)[nH]1 | 0 |
| O=c1cc(CCC2CC2)c2c(=O)n(C3CCC3)c(=O)[nH]c2o1 | 1 |
| O=c1[nH]c(=O)c2c(Cc3ccsc3)cc(=O)oc2[nH]1 | 1 |
| COCCn1c(=O)[nH]c2oc(=O)cc(CCC3CC3)c2c1=O | 0 |
| CCCCc1cc(=O)oc2nc(O[C@H]3C[C@H](COCc4ccccc4)C3)[nH]c(=O)c12 | 1 |
| CCCCc1cc(=O)oc2[nH]c(=O)nc(OCCF)c12 | 0 |
| CCCCCCc1cc(=O)oc2[nH]c(=O)nc(OCF)c12 | 0 |
| O=c1cc(CCC2CCC2)c2c(=O)[nH]c(CF)nc2o1 | 0 |
| CCCCc1cc(=O)oc2c1c(=O)[nH]c(=O)n2OCC | 0 |
| CCCc1cc(=O)oc2[nH]c(=O)nc(OCCF)c12 | 0 |
| COn1c(=O)[nH]c2oc(=O)cc(CCC3CCCC3)c2c1=O | 1 |
| CCCCc1cc(=O)oc2nc(OCC#CC(O)CC)[nH]c(=O)c12 (centres unmarked) | 1 |
| CCc1cc(=O)oc2[nH]c(=O)n(CCF)c(=O)c12 | 0 |
| CCCCc1cc(=O)oc2[nH]c(=O)nc(OCC(F)(F)F)c12 | 0 |
| CCCCc1cc(=O)oc2c1c(=O)[nH]c(=O)n2O | 0 |
| CCCCc1cc(=O)oc2[nH]c(=O)n(O)c(=O)c12 | 0 |
| CCCCc1c(-c2ccccc2)c(=O)oc2[nH]c(=O)[nH]c(=O)c12 | 0 |
| O=c1[nH]c(=O)c2c(CCCC3CCCC3)cc(=O)oc2[nH]1 | 1 |
| CCCCc1cc(=O)oc2[nH]c(=O)n(C(F)F)c(=O)c12 | 0 |
| COCCn1c(=O)[nH]c(=O)c2c(CCC3CC3)cc(=O)oc21 | 0 |
| CCCCc1cc(=O)oc2[nH]c(=O)n(N3CCOCC3)c(=O)c12 | 0 |
| O=c1cc(CCCC2CC2)c2c(=O)n(CCF)c(=O)[nH]c2o1 | 0 |
